# test target: T1, TOPBP1-BRCT7,8 ( (human and chicken TOPBP1 …))
# T1 chain: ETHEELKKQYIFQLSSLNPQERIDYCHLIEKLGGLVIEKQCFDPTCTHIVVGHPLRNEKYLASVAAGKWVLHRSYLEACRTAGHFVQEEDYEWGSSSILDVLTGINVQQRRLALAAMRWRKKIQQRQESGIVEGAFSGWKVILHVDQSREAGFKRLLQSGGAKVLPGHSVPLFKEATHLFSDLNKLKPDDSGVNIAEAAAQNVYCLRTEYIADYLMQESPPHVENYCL
# protocol: FP
Where no end group is shown, it is not given here. [ ]: non-standard residue; d: D form. pT = C[C@@H](OP(=O)(O)O)[C@H](N)C(=O)O
assay metric: pKd
Scale explanation: pKd corresponds to minus log10 of a concentration expressed in moles per litre.

Kindly note the recorded pKd for fluorescein-GYGEDESIYF[pT]PELYDPE [FANCJ pT1133 fluorescein-labelled phosphopeptide] , which is 6.85
